Conditions: buffer; pH 7.4; 200.0 µM
Let's look at some molecules and their measured solubility kinetic.

MOLECULE: COc1cccc(C(=O)NCC(=O)OC(C)C(=O)NC23CC4CC(CC(C4)C2)C3)c1 (stereo not drawn)
solubility kinetic: > 62.2 µg/mL
//
MOLECULE: COc1ccc(NC(=O)C2CC(=O)N=C(N)S2)cc1 (stereo not drawn)
solubility kinetic: > 41.9 µg/mL
//
MOLECULE: CS(=O)c1ccc(-n2c(=O)n(Cc3ccccc3)c(=O)c3[nH]cnc32)cc1 (stereo not drawn)
solubility kinetic: > 57.1 µg/mL

* * *

Conditions: buffer; pH 7.4; 200.0 µM
The label depends only on solubility kinetic: rule met if it is at least 3 µg/mL, rule not met if it is smaller.

MOLECULE: CCOC(=O)CC(NC(=O)c1cccs1)c1ccc(C)cc1 (stereo unspecified)
CLASS: rule met
--
MOLECULE: CC(NC(=O)CS(=O)(=O)c1ccccc1)c1ccccc1 (stereo unspecified)
CLASS: rule met
--
MOLECULE: CN(C)C(=O)CN1CCN(Cc2nc(CC3CC3)no2)CC1
CLASS: rule met
--
MOLECULE: Nc1nccnc1C(=O)OCC(=O)c1ccc[nH]1
CLASS: rule met
--
MOLECULE: c1nc(Nc2ccc(N3CCOCC3)cc2)c2ccsc2n1
CLASS: rule met
--
MOLECULE: COc1ccc(C)cc1NC(=O)CCCN1C(=O)NC(C)(C)C1=O
CLASS: rule met
--
MOLECULE: COc1ccc(-c2cc(C(F)(F)F)nc(N)n2)cc1
CLASS: rule not met
--
MOLECULE: COC(OC)c1ccnc(SCc2ccccc2Cl)n1
CLASS: rule met
--
MOLECULE: COc1ccccc1Nc1c2ccccc2nc2ccccc12
CLASS: rule met
--
MOLECULE: Cc1ccc(C)c(NC(=S)NCCc2cnc[nH]2)c1
CLASS: rule met
--
MOLECULE: Cc1csc(Nc2nc(N)c(C(=O)Nc3cc(Cl)ccc3F)o2)n1
CLASS: rule met
--
MOLECULE: CCCCOc1ccc(C(=O)NCCc2cccs2)cc1
CLASS: rule not met
--
MOLECULE: CN(C(=O)COc1ccc(Cl)cc1)C1(C)CCS(=O)(=O)C1 (stereo unspecified)
CLASS: rule met
--
MOLECULE: O=c1[nH]c(CSc2cccc[n+]2[O-])nc2ccccc12
CLASS: rule met
--
MOLECULE: Cn1c(O)c(C=Nc2ccc(Br)cc2)c(=O)n(C)c1=O
CLASS: rule not met
--
MOLECULE: CCCC(=O)N(Cc1cc(=O)[nH]c2ccccc12)c1ccc(OC)cc1
CLASS: rule met

* * *

Documented solubility kinetic across a set of molecules
Conditions: buffer; pH 7.4; 200.0 µM

MOLECULE: COc1ccc(C(=O)N/N=C/c2cccnc2)cc1
solubility kinetic: > 38.3 µg/mL

MOLECULE: Cc1ccc(NC(=O)CN2C(=O)S/C(=C\c3ccccn3)C2=O)cc1C
solubility kinetic: < 0.3 µg/mL

MOLECULE: COCCn1c(Cc2ccccc2)nnc1SCC(=O)Nc1ccccc1
solubility kinetic: > 57.4 µg/mL

MOLECULE: CSC1=C(C#N)C(c2sccc2C)CC(=O)N1 (stereo unspecified)
solubility kinetic: > 39.7 µg/mL

MOLECULE: Cc1onc(-c2ccccc2)c1C(=O)NCCc1ccncc1
solubility kinetic: > 46.1 µg/mL

MOLECULE: Cc1ccc(C)c(N(CC(=O)NC2CCCC2)S(=O)(=O)c2ccccc2)c1
solubility kinetic: < 0.4 µg/mL

* * *

Settings: buffer; pH 7.4; 200.0 µM

COMPOUND: Cc1ccc2[nH]c(C(=O)N3CCN(C=O)CC3)cc2c1
solubility kinetic: > 40.7 µg/mL

COMPOUND: COC(=O)c1cn(Cc2ccc(C(F)(F)F)cc2)cc(F)c1=O
solubility kinetic: > 49.4 µg/mL

COMPOUND: CCOC(=O)/C=C1\SCC(=O)N1CC(=O)N1CCOCC1
solubility kinetic: > 47.2 µg/mL

COMPOUND: COc1ccc(C(=O)C(C)OC(=O)CNC(=O)c2ccco2)cc1 (stereo not given)
solubility kinetic: > 49.7 µg/mL

COMPOUND: CC(=O)N1CC(=O)Nc2ccc(C)cc2C1c1ccccc1 (stereo not given)
solubility kinetic: > 44.2 µg/mL

COMPOUND: C[C@@H](NCCc1ccc(O)cc1)[C@@H](O)c1ccc(O)cc1.Cl
solubility kinetic: > 48.6 µg/mL

COMPOUND: N#CCc1ccc(OC(=O)c2cccnc2)cc1
solubility kinetic: > 35.7 µg/mL

COMPOUND: O=C(O)c1ccc(Cl)c(S(=O)(=O)NCc2cccnc2)c1
solubility kinetic: > 49 µg/mL

COMPOUND: COc1ccc(-c2nc3ncccc3n2O)cc1
solubility kinetic: > 36.2 µg/mL

COMPOUND: N#Cc1cccc(NC(=O)COC(=O)C2CCC2)c1
solubility kinetic: > 38.7 µg/mL

* * *

Known solubility kinetic of a selection of molecules
Conditions: buffer; pH 7.4; 200.0 µM

CHEMICAL SMILES: N=c1c2c3c(sc2ncn1N)CCCC3
solubility kinetic: > 33 µg/mL
--
CHEMICAL SMILES: O=C(/C=C/c1ccccc1)OCC(=O)N1CCCC1
solubility kinetic: > 38.9 µg/mL
--
CHEMICAL SMILES: O=C(O)CCCN1C(=O)/C(=C/c2ccncc2)SC1=S
solubility kinetic: > 46.3 µg/mL
--
CHEMICAL SMILES: CSc1ccccc1C(=O)N1CCCCC1
solubility kinetic: > 35.3 µg/mL
--
CHEMICAL SMILES: O=[N+]([O-])c1cccc2cn[nH]c12
solubility kinetic: > 24.5 µg/mL
--
CHEMICAL SMILES: O=C(c1ccccc1)c1nc2c(n1O)CCCCC2
solubility kinetic: > 38.4 µg/mL

* * *

Conditions: buffer; pH 7.4; 200.0 µM

COMPOUND: Cc1c(Cl)cccc1NC(=S)NCCc1ccc(Cl)cc1
READING QUALIFIER: =
solubility kinetic (µg/mL): 0.4

COMPOUND: Cc1cc(OCC(=O)Nc2ccncc2)ccc1Cl
READING QUALIFIER: =
solubility kinetic (µg/mL): 40.6

COMPOUND: CCc1ncc(C)[nH]1
READING QUALIFIER: >
solubility kinetic (µg/mL): 16.5

COMPOUND: CCCn1c(=O)c(C(=O)NC(C)c2ccccc2)c(O)c2ccccc21 (stereo unspecified)
READING QUALIFIER: =
solubility kinetic (µg/mL): 1.3

COMPOUND: CC1CCCC(NC(=O)COC(=O)CCC(=O)c2ccc(F)cc2)C1C (stereo unspecified)
READING QUALIFIER: =
solubility kinetic (µg/mL): 11.5

COMPOUND: Cc1c(OCC(F)(F)F)ccnc1CS(=O)c1nc2ccccc2[nH]1 (stereo unspecified)
READING QUALIFIER: >
solubility kinetic (µg/mL): 55.4

* * *

Listed compounds paired with reported solubility kinetic
Conditions: buffer; pH 7.4; 200.0 µM

COMPOUND: NC(=O)C1CCN(S(=O)(=O)c2ccc3c(c2)OCCO3)CC1
solubility kinetic: > 49 µg/mL

COMPOUND: Cc1cc(Cl)nc(NC(=O)Nc2cccc(Cl)c2)n1
solubility kinetic: < 0.2 µg/mL

COMPOUND: O=CN1CCN(S(=O)(=O)c2ccc(Cl)c(C(=O)O)c2)CC1
solubility kinetic: > 49.9 µg/mL

COMPOUND: COC(=O)CCN(C(=O)c1cccc([N+](=O)[O-])c1)c1ccccn1
solubility kinetic: > 49.4 µg/mL

COMPOUND: O=C(COC(=O)CCc1nc2ccccc2c(=O)[nH]1)Nc1ccccc1
solubility kinetic: > 52.7 µg/mL

COMPOUND: CCCCCCCCCCCCN1C(=O)CSC1c1cccnc1 (stereo not drawn)
solubility kinetic: < 0.4 µg/mL

COMPOUND: O=C(Nc1ccccc1C(=O)O)C1=NN=CC1
solubility kinetic: > 34.7 µg/mL

COMPOUND: N#Cc1ccc(OCC(=O)NCCN2CCOCC2)cc1
solubility kinetic: > 43.4 µg/mL

* * *

Conditions: buffer; pH 7.4; 200.0 µM

COMPOUND: CC1CCC(NC(=O)COC(=O)c2cccnc2Cl)CC1 (centres undefined)
solubility kinetic: > 46.6 µg/mL
//
COMPOUND: CCNS(=O)(=O)c1ccc(CCC(=O)N2CCOCC2)cc1
solubility kinetic: > 49 µg/mL
//
COMPOUND: COc1ccccc1CC1CC(=O)N(c2ccccc2)C1=O (centres undefined)
solubility kinetic: > 44.3 µg/mL
//
COMPOUND: COC(=O)C(Cc1ccccc1)NC(=O)CCC(=O)NC(C)CCc1ccccc1 (centres undefined)
solubility kinetic: > 61.6 µg/mL
//
COMPOUND: NC(=O)C1CCCN(C(=S)NCc2ccc3c(c2)OCO3)C1 (centres undefined)
solubility kinetic: > 48.2 µg/mL
//
COMPOUND: Cn1c(N)c(C(=O)CSc2nnc(C3CC3)n2-c2ccccc2)c(=O)[nH]c1=O
solubility kinetic: > 59.8 µg/mL
//
COMPOUND: NC(=O)C1CCN(C(=O)/C(=C/c2ccco2)NC(=O)c2ccccc2)CC1
solubility kinetic: > 55.1 µg/mL
//
COMPOUND: CC(=O)NC1(C(F)(F)F)C(=O)Nc2c1c(=O)[nH]c(=O)n2CC(C)C (centres undefined)
solubility kinetic: < 0.2 µg/mL
//
COMPOUND: Cc1cc(C)c(C#N)c(N2CCN(c3ccc(F)cc3)CC2)n1
solubility kinetic: < 0.2 µg/mL
//
COMPOUND: O=C(NCc1ccc(F)cc1)C(c1ccccc1)c1ccccc1
solubility kinetic: < 0.7 µg/mL
//
COMPOUND: Cn1c(SCC(=O)NC2CC2)nnc1-c1ccccn1
solubility kinetic: > 43.4 µg/mL
//
COMPOUND: COC(=O)/C(C#N)=C/N(C)C
solubility kinetic: > 23.1 µg/mL
//
COMPOUND: NC(=O)CN1C(=O)NC(c2ccccc2)(c2ccccc2)C1=O
solubility kinetic: > 46.4 µg/mL
//
COMPOUND: O=C(NCc1ccccn1)Nc1cccc(Cl)c1Cl
solubility kinetic: > 44.4 µg/mL
//
COMPOUND: CC(Oc1ccc(C#N)cc1)C(=O)N1CC=C(c2ccccc2)CC1 (centres undefined)
solubility kinetic: 38.4 µg/mL
//
COMPOUND: O=[N+]([O-])c1cccnc1Sc1ccc(Cl)cc1
solubility kinetic: 0.7 µg/mL
//
COMPOUND: Cc1ccc(C(=O)OCC(=O)N2CCOCC2)c(C)c1
solubility kinetic: 34 µg/mL
//
COMPOUND: CC(C)c1ccccc1OCCCCCN1CCOCC1
solubility kinetic: 25.8 µg/mL
//
COMPOUND: Fc1ccc(C2CCCN2Cc2nc(CC3CC3)no2)cc1 (centres undefined)
solubility kinetic: 28.6 µg/mL
